- target: Aromatase (Homo sapiens, UniProt P11511)
- Sequence (P11511 whole entry): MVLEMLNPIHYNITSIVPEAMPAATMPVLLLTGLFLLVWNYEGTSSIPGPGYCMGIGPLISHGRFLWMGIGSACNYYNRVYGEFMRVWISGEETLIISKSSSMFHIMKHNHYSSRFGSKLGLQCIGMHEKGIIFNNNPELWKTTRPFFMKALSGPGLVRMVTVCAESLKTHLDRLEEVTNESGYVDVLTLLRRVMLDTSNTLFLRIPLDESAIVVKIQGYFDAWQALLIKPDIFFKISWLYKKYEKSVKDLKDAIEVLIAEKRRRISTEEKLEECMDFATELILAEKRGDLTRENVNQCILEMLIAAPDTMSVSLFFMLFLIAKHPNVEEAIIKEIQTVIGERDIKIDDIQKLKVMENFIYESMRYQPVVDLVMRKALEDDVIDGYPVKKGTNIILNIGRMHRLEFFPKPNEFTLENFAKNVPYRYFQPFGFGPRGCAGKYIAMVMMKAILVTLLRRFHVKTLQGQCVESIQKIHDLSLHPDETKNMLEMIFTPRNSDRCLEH
- method-description: Mixed type inhibition of recombinant human aromatase assessed as Vmax preincubated for 10 min followed by different substrate concentration and beta-NADP+ addition measured for 60 mins by fluorescence method based Michaelis-menten analysis (reference value: 93.3 +/- 1.3 /ms)
- test-settings: 1 h
observable: Vmax (U/ms)

A selection of reference data follows.
| compound-structure-string | target | Vmax, U/ms |
| --- | --- | --- |
| COC(=O)c1ccc(NCC2=CC(=O)c3ccccc3C2=O)cc1 | Aromatase (Homo sapiens, UniProt P11511) | 79.3 |
| O=C1c2c(O)ccc(O)c2C(=O)c2c(NCCCO)ccc(NCCCO)c21 | Aromatase (Homo sapiens, UniProt P11511) | 21.5 |
| N[C@@H]1CCN(Cc2cc(O)c3cc(F)ccc3n2)C[C@H]1O | Aromatase (Homo sapiens, UniProt P11511) | 64.6 |

a = CC[C@H](Nc1cc(C)nc(Nc2cccc(O)c2)n1)c1nccs1
b = O=C(CCc1ccc(O)c(Cl)c1)NCc1csc(=O)[nH]1
Problem: Given the entries a and b , determine which has the lower reported Vmax. Pick one and reply with its label. a
(a: 19.3 U/ms, b: 85.2 U/ms)
